# Test system: HCT-15 colon
# ASSAY OVERVIEW: NCI-60 one-dose screen, 48 h (100 = growth as untreated, 0 = no growth, -100 = all killed)
# MEASUREMENT PARAMETERS: 10 µM unless noted
# Method: Growth inhibition of the HCT-15 human tumor cell line is measured as a screen for anti-cancer activity. Cells are grown in 96 well plates and exposed to the test compound for 48 hours. Compounds are tested at a single concentration, which is 10^-5 M for most compounds. The reported endpoint is percent growth (GI% or GIPRCNT), where numbers from 0 - 100% represent growth inhibition, and numbers from -100% - 0 represent cell death. For example, a value of 40 represents 60% growth inhibition. […]
This is part of a sample that, as a whole, favours compounds with a hit. Of some 83,000 tested, about 20% had one in any assay.
growth below 90% gives 0; growth at or above it gives 1.

Study these solved cases before continuing.
MOLECULE: CC(C)N1C(=O)/C(=C2\SC(=S)N(C(C)C)C2=O)SC1=S
CLASS: 1

MOLECULE: O=C(c1nc2ccccc2[nH]1)C1C(c2ccc(Cl)cc2)C2CC3CCCC[C@H]3N2[C@@]12C(=O)Nc1cc(Cl)ccc12 (some centres undefined)
CLASS: 0

For the next question, use this molecule.
Problem: hey, is growth for this one >= 90%? Cc1ccc(C(=O)/C(=C\c2ccc([N+](=O)[O-])cc2)S(=O)Cc2ccc(Cl)cc2)cc1 (centres undefined)
Result: 0

---

# System: SK-MEL-2 melanoma
# ASSAY OVERVIEW: NCI-60 one-dose screen, 48 h
# MEASUREMENT PARAMETERS: 10 µM unless noted
Compounds without any hit were thinned out: in the full panel of roughly 83,000, 20% have a hit. Calls of active or inactive are those of the source. The calls were made as follows: active = growth percent below 10; inactive = the rest.
A correct response names exactly one class from active, inactive

Study these solved cases before continuing.
MOLECULE: CC1=CCC(OC(=O)C(C)(O)CCC(O)(C(=O)OC2(C)C=CC(O)(C(C)C)CC2)C(C)C)(C(C)C)CC1 (centres undefined)
CLASS: inactive
--
MOLECULE: Cc1ccc(NS(=O)(=O)c2ccc(-c3cnc(C4CC4)o3)cc2)cc1C(F)(F)F
CLASS: inactive
--
MOLECULE: COc1cc(C2C3=C(COC3=O)N(CCO)c3cc4c(cc32)CCC4)cc(OC)c1OC (centres undefined)
CLASS: active
--
MOLECULE: C=C1C(=O)O[C@H]2[C@H]1CC/C(COC(=O)NCC(C)c1ccc(CC(C)C)cc1)=C\CC[C@@]1(C)O[C@@H]21 (some centres undefined)
CLASS: active
--
MOLECULE: COc1ccccc1/C=C1\Oc2cc(OCCN3CCCC3)ccc2C1=O
CLASS: inactive
--
MOLECULE: COc1cc2nc(-c3ccc(C(F)(F)F)cc3)cc(OCCCN3CCOCC3)c2cc1OC
CLASS: inactive

Problem: In this assay, the call recorded for O=C(/C(=C\c1ccc([N+](=O)[O-])cc1)S(=O)Cc1ccc(Cl)cc1)c1ccc(Cl)cc1 (centres undefined) was what?
Result: inactive

Problem: In this assay, the call recorded for `CCCCOc1ccc(/C=N/Nc2cc(C)nc3ccc(Br)cc23)cc1` was what?
Result: inactive

Problem: In this assay, the call recorded for O=C1c2ccccc2CCC12OC2c1cn(-c2ccccc2)nc1-c1ccc(Cl)cc1 (centres undefined) was what?
Result: inactive

---

# Test system: KM12 colon
# ASSAY OVERVIEW: NCI-60 one-dose screen, 48 h (100 = growth as untreated, 0 = no growth, -100 = all killed)
# MEASUREMENT PARAMETERS: 10 µM unless noted
This is part of a sample that, as a whole, favours compounds with a hit. Of some 83,000 tested, about 20% had one in any assay.
PROPERTY NAME: growth (%)
Give your result in % as a bare value.

COMPOUND: COc1cc2c(cc1OC)C(=O)/C(=C/c1cc(C)c(O)c(C)c1)S2
TEST SYSTEM: KM12 colon
PROPERTY NAME: growth
RESULT VALUE: 26.2
//
COMPOUND: C=C(C)[C@@H]1CC[C@]2(C(=O)N[C@@H](Cc3ccccc3)C(=O)OC)CC[C@]3(C)[C@H](CC[C@@H]4[C@@]5(C)CCC(=O)C(C)(C)[C@@H]5CC[C@]43C)[C@@H]12
TEST SYSTEM: KM12 colon
PROPERTY NAME: growth
RESULT VALUE: 75.2
//
COMPOUND: O=C(Nc1ccccc1C(=O)N/N=C(\c1ccccc1)c1ccccn1)c1ccc(F)cc1
TEST SYSTEM: KM12 colon
PROPERTY NAME: growth
RESULT VALUE: 26.6
//
COMPOUND: N#CC(C(=O)/C(=N/NC(=O)c1ccccc1O)C(C#N)c1ccccc1)c1ccccc1 (stereo not drawn)
TEST SYSTEM: KM12 colon
PROPERTY NAME: growth
RESULT VALUE: 46.5
//
COMPOUND: O=C1c2ccc3c4c(ccc(c24)C(=O)N1CCCNCc1ccccc1F)C(=O)N(CCCNCc1ccccc1F)C3=O
TEST SYSTEM: KM12 colon
PROPERTY NAME: growth
RESULT VALUE: -76.1

Problem: Provide measured growth value, entry: `COc1ccc(CC(C)=C(c2ccc(OCCN3CCCCCC3)cc2)c2ccc(OCCN3CCCCCC3)cc2)cc1`
Result: -97.4

Problem: Provide measured growth value, entry: `C=C(C)[C@@H]1CC[C@]2(C(=O)N3CCN(C)CC3)CC[C@]3(C)[C@H](CC[C@@H]4[C@@]5(C)CC[C@H](OCCC#N)C(C)(C)[C@@H]5CC[C@]43C)[C@@H]12`
Result: 48.2

Problem: Provide measured growth value, entry: `N#C/C(=C\c1ccc(Cl)cc1)n1nnc2cc(F)c(F)cc21`
Result: 16.2

---

# System: CAKI-1 renal
# ASSAY OVERVIEW: NCI-60 one-dose screen, 48 h (100 = growth as untreated, 0 = no growth, -100 = all killed)
# MEASUREMENT PARAMETERS: 10 µM unless noted
# Experimental: Growth inhibition of the CAKI-1 human tumor cell line is measured as a screen for anti-cancer activity. Cells are grown in 96 well plates and exposed to the test compound for 48 hours. Compounds are tested at a single concentration, which is 10^-5 M for most compounds. The reported endpoint is percent growth (GI% or GIPRCNT), where numbers from 0 - 100% represent growth inhibition, and numbers from -100% - 0 represent cell death. For example, a value of 40 represents 60% growth inhibition. […]
The panel holds about 83,000 compounds, 20% with a hit somewhere; the sample as a whole holds those more often.
PROPERTY NAME: growth (%)
Give your result in % as a bare value.

Examples with their reported growth follow.
COMPOUND: Cc1cccc(NC(=O)Nc2ccc(-c3ccc4c(c3)NC(=O)/C4=C\c3ccc[nH]3)cc2)c1
DISPLAY UNIT: %
growth: 82.6
//
COMPOUND: CN1CCN(C(=O)[C@]23CCC(C)(C)C[C@H]2C2=CC[C@@H]4[C@@]5(C)C/C(=C/c6cccnc6)C(=O)C(C)(C)[C@@H]5CC[C@@]4(C)[C@]2(C)CC3)CC1
DISPLAY UNIT: %
growth: 66.6

Problem: Provide measured growth value, entry: `COc1ccc(-c2[nH][nH]c(=O)c2-c2nc3ccccc3s2)cc1`
Result: 88

Problem: Provide measured growth value, entry: `Cc1nn(-c2ccccc2)c(Oc2c(Cl)cccc2Cl)c1/C=N/N=c1\sc2ccccc2n1C`
Result: 36.4

---

growth values, listed per item
# Tested on: SK-MEL-2 melanoma
# ASSAY OVERVIEW: NCI-60 one-dose screen, 48 h (100 = growth as untreated, 0 = no growth, -100 = all killed)
# MEASUREMENT PARAMETERS: 10 µM unless noted
The panel holds about 83,000 compounds, 20% with a hit somewhere; the sample as a whole holds those more often.
Give your result in % as a bare value.

COMPOUND: O=S(=O)(NCCNc1nccc(-c2c(-c3cccc(O)c3)nc3occn23)n1)c1ccc(Cl)cc1
DISPLAY UNIT: %
RESULT VALUE: 83.4

Problem: Provide measured growth value, entry: COc1cc2c(c(OC)c1OC)-c1ccc(NNC(=S)N(Cc3cccc(C[N+](Cc4cccc(CNC56CC7CC(CC(C7)C5)C6)c4)(Cc4cccc(CNC56CC7CC(CC(C7)C5)C6)c4)Cc4cccc(CN(C(=S)NNc5ccc6c(cc5=O)[C@@H](NC(C)=O)CCc5cc(OC)c(OC)c(OC)c5-6)C56CC7CC(CC(C7)C5)C6)c4)c3)C34CC5CC(CC(C5)C3)C4)c(=O)cc1[C@@H](NC(C)=O)CC2 (stereo partly specified)
Result: -20.3

Problem: Provide measured growth value, entry: `CCOc1ccc(Nc2nc(-c3ccc4c(c3)NC(=O)CO4)cs2)cc1`
Result: 81.3

Ref: PubChem BioAssay (NCI)
